Target: T1, Alpl (alkaline phosphatase) (Mus musculus, UniProt P09242 P09242:18-501)
T1 sequence: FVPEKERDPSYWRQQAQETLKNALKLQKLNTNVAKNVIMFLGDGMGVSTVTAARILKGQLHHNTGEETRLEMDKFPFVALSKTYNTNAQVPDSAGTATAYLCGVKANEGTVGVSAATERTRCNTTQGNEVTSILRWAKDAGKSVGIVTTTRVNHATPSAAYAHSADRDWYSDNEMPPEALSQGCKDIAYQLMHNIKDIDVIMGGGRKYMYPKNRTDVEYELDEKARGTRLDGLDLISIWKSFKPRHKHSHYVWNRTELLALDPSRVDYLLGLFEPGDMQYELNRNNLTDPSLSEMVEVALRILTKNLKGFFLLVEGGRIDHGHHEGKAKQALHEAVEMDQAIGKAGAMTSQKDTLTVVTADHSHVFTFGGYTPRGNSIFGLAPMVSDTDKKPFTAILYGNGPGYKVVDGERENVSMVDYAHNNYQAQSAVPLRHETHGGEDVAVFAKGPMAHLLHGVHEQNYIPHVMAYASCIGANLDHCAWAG
Test: flow; Ext1-/- mouse ES cells, 40 min in suspension, 0-200 nM; binding significantly reduced after 6 days of neural differentiation
Conditions: tags: endogenous on Ext1-/- mouse embryonic stem cells; chain copies: 2; label: AF488 (on streptavidin); G4
pEC50: −log10 of the molar value.

>  <BINDER>
AGGTCAGATGAGGAGGGGGACTTAGGACTGGGTTTATGACCTATGCGTG (ssDNA, 5'-biotin, bound to streptavidin carrying biotinylated heparin (1:1:1)) [Hep-SA-19S (heparin-streptavidin-aptamer 19S chimera)]

>  <pEC50>
7.15

$$$$
